Numbers sourced from the array DNA melting data of Ke et al. (doi:10.1101/2024.01.08.574731).

# Experimental protocol: folding enthalpy; higher = less favourable; fluorescence melt of hairpins on a sequencing array, two-state fit
# Experimental parameters: sodium 0.088 M
I would appreciate it if you labelled entries satisfied when folding enthalpy is -30 kcal/mol or higher, otherwise not satisfied.

>  <Residue sequence>
GGTTGTACGAAAGTAACC (((..(((....))))))

>  <Assigned class>
satisfied

$$$$
>  <Residue sequence>
GCCATGCGAAAGCCGGGC (((..((....))..)))

>  <Assigned class>
satisfied

$$$$
>  <Residue sequence>
GGTCAGGGAAACCTGATC (.(((((....))))).)

>  <Assigned class>
satisfied

$$$$
>  <Residue sequence>
GGGTTAGCGAAAGCTCCC (((..(((....))))))

>  <Assigned class>
satisfied

$$$$
>  <Residue sequence>
GTTAACGAAAGTTATAAC ((((((....)))..)))

>  <Assigned class>
satisfied

$$$$
>  <Residue sequence>
GATCTGGCCTCAGATC ((((((....))))))

>  <Assigned class>
not satisfied

$$$$
>  <Residue sequence>
TTGTAGAAATACAA (((((....)))))

>  <Assigned class>
satisfied

$$$$
>  <Residue sequence>
GCCGTCGAAAGACAAGGC ((((((....)))..)))

>  <Assigned class>
not satisfied

$$$$
>  <Residue sequence>
GTGATTGCGAAAGCACAC (((..(((....))))))

>  <Assigned class>
satisfied

$$$$
>  <Residue sequence>
GAATGAGGAAACTCGTTC (((.(((....))).)))

>  <Assigned class>
not satisfied

$$$$
>  <Residue sequence>
GATGGCCGAAAGGCTATC (((.(((....))).)))

>  <Assigned class>
satisfied

$$$$
>  <Residue sequence>
GATCTCTCTCGAGATC ((((((....))))))

>  <Assigned class>
not satisfied

$$$$
>  <Residue sequence>
GCCTTGGGAAACTAAGGC (((((.(....).)))))

>  <Assigned class>
not satisfied

$$$$
>  <Residue sequence>
GATGAGCGAAAGCTGATC (((.(((....))).)))

>  <Assigned class>
satisfied

$$$$
>  <Residue sequence>
GGCGCCTCGAAAGAGGCC (((..(((....))))))

>  <Assigned class>
satisfied

$$$$
>  <Residue sequence>
GATCGAATTGTCGATC ((((((....))))))

>  <Assigned class>
not satisfied

$$$$
>  <Residue sequence>
GATGGAGGAAACTCCACC (.(((((....))))).)

>  <Assigned class>
satisfied

$$$$
>  <Residue sequence>
GCGCCCTCGAAAGAGCGC (((..(((....))))))

>  <Assigned class>
not satisfied

$$$$
>  <Residue sequence>
GTCCACGAAAGTGGCGAC ((((((....)))..)))

>  <Assigned class>
satisfied

$$$$
>  <Residue sequence>
GGCTACGAAAGTACAGCC ((((((....)))..)))

>  <Assigned class>
satisfied

$$$$
>  <Residue sequence>
CGCATCGGAAACGAGGCG (((.(((....))).)))

>  <Assigned class>
not satisfied

$$$$
>  <Residue sequence>
GATCCGTAAGCGGATC ((((((....))))))

>  <Assigned class>
not satisfied

$$$$
>  <Residue sequence>
GGGTGGGGAAACCTACCC ((((.((....)).))))

>  <Assigned class>
not satisfied

$$$$
>  <Residue sequence>
AGAGGGAAACCTCT (((((....)))))

>  <Assigned class>
satisfied

$$$$
